Each recorded value in this set is attributed to paper PMC5540273.

Below, each entry is listed with its recorded inhibition at 1 µM.
STUDY_TARGET: UniProt P49761
Sequence (P49761 whole entry): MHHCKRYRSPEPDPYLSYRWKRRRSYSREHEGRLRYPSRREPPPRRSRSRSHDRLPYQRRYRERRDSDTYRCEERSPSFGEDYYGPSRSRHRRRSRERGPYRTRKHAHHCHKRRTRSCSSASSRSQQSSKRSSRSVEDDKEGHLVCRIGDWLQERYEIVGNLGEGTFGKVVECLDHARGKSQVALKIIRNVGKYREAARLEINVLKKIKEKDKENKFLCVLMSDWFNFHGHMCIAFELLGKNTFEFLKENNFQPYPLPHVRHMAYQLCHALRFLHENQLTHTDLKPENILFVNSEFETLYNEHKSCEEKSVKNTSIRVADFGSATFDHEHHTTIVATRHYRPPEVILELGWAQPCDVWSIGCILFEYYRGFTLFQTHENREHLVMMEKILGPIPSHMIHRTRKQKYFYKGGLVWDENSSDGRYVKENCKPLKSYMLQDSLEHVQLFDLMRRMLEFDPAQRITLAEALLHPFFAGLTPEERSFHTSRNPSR
ASSAY_METHOD_TEXT: KINOMEscan competition binding
ASSAY_CONDITIONS: read-out: %Inh CLK3
// units = %; emit number, no label

Observe how each entry below is paired with its result.
- COMPOUND: "Cc1ccc(NC(=O)Nc2cccc(C(F)(F)F)c2)cc1 [UNC10225187A]"
  STUDY_TARGET: "UniProt P49761"
  PROPERTY_LABEL: "inhibition at 1 µM"
  VALUE_UNITS: "%"
  REPORTED_MEASUREMENT: 0
- COMPOUND: "COc1cccc(OC)c1C(=O)Nc1cccc(-c2nn3ccccc3c2-c2ccnc(Nc3cccc(F)c3)n2)c1 [UNC10225310A]"
  STUDY_TARGET: "UniProt P49761"
  PROPERTY_LABEL: "inhibition at 1 µM"
  VALUE_UNITS: "%"
  REPORTED_MEASUREMENT: 0
- COMPOUND: "Cn1cc(-c2cnc(N)c3c(-c4ccc5c(c4)CCN5C(=O)Cc4ccccc4)csc23)cn1 [UNC10225012A]"
  STUDY_TARGET: "UniProt P49761"
  PROPERTY_LABEL: "inhibition at 1 µM"
  VALUE_UNITS: "%"
  REPORTED_MEASUREMENT: 0
- COMPOUND: "CS(=O)(=O)Cc1ccc(Nc2nccc(-c3c(-c4cccc(NC(=O)C5CCCCC5)c4)nn4ncccc34)n2)cc1 [UNC10225159A]"
  STUDY_TARGET: "UniProt P49761"
  PROPERTY_LABEL: "inhibition at 1 µM"
  VALUE_UNITS: "%"
  REPORTED_MEASUREMENT: 24

# ---- query compound ----
Report inhibition at 1 µM for O=c1cc(N2CCOCC2)nc2n(Cc3cccc(Cl)c3Cl)c(C3CC3)nn12 [UNC10225469A] tested on UniProt P49761. 14

----------
STUDY_TARGET: EPHA1 (Homo sapiens)
Sequence (P21709 26-976): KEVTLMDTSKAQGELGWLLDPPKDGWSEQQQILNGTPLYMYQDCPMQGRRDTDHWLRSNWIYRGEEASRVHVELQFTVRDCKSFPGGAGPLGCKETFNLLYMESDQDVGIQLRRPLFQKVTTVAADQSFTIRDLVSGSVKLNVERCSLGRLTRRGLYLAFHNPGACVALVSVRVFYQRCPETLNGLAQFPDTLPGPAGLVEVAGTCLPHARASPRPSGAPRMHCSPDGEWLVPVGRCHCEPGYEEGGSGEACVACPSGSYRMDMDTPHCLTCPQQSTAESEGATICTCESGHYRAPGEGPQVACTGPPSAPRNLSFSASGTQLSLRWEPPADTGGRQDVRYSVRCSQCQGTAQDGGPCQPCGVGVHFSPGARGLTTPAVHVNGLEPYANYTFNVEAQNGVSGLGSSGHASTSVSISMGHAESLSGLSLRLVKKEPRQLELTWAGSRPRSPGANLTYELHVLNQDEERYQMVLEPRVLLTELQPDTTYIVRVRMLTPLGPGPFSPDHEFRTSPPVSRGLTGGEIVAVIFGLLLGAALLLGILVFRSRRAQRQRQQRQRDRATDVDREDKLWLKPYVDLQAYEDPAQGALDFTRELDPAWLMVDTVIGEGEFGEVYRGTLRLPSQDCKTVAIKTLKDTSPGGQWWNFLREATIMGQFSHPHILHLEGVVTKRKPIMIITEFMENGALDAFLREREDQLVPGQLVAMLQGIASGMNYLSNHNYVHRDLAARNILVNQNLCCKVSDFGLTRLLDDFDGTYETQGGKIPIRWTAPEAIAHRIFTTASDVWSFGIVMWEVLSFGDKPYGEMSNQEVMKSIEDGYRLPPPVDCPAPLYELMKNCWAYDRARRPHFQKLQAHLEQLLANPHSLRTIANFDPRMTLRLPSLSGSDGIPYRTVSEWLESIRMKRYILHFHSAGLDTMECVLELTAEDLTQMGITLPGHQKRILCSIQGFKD
ASSAY_METHOD_TEXT: KINOMEscan competition binding
ASSAY_CONDITIONS: read-out: %Inh EPHA1
As shown below, each of these molecules has a reported inhibition at 1 µM value.
Reply numerically in %, unit not repeated.

Examples from the recorded data:
- MOLECULE: "Cn1cc(-c2cnc(N)c3c(-c4ccc5c(c4)CCN5C(=O)Cc4ccccc4)csc23)cn1 [UNC10225012A]"
  inhibition at 1 µM / %: 11
- MOLECULE: "COc1cccc(OC)c1C(=O)Nc1cccc(-c2nn3ccccc3c2-c2ccnc(Nc3cccc(F)c3)n2)c1 [UNC10225310A]"
  inhibition at 1 µM / %: 4
- MOLECULE: "O=c1cc(N2CCOCC2)nc2n(Cc3cccc(Cl)c3Cl)c(C3CC3)nn12 [UNC10225469A]"
  inhibition at 1 µM / %: 7

Quick one: inhibition at 1 µM of Cc1ccc(NC(=O)Nc2cccc(C(F)(F)F)c2)cc1 [UNC10225187A] ? 17

// same read-out, input: CS(=O)(=O)Cc1ccc(Nc2nccc(-c3c(-c4cccc(NC(=O)C5CCCCC5)c4)nn4ncccc34)n2)cc1 [UNC10225159A] 6
